- ASSAY_DETAILS: NCI Yeast Anticancer Drug Screen. Data for the rad50 strain (AID 155);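 further: 0% = growth of vehicle-only cultures of the same strain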
- CONDITION_LABEL: S. cerevisiae rad50 strain growth inhibition; at 50.0 µM (retest, dose inferred, filed as 5.0); hits give high values
The panel holds about 79,000 compounds, 15% with a hit somewhere; the sample as a whole holds those more often.
growth inhibition values, listed per item
Unit % implied. Number only.

In the examples that follow, each entry is paired with its recorded growth inhibition.
>>> df
                                   compound  numeric_result
0  CC(C)CC(N)C(=O)NNc1ccccc1 (stereo unspecified)              94
1   CCOC(=O)C(=N\Nc1ccccc1C)/C(C)=N\NC(N)=S              37
2  O=C(/C=C(\C(=O)c1ccccc1)N(/C(=C/C(=O)c1ccccc1)C(=O)c1ccccc1)c1ccccc1)c1ccccc1              30
3  CCCOC(=O)C(S)C(S)C(=O)OCCC (stereo unspecified)              50

Need growth inhibition, item CC(=O)Nc1ccc(-c2nnc(SCC(=O)Nc3ccc(Cl)cc3Cl)o2)cc1
30

Next record, please: CCCCCCOC(=O)C(N)Cc1ccc(OC)cc1 (stereo unspecified)
21

* * *

- ASSAY_DETAILS: NCI Yeast Anticancer Drug Screen. Data for the rad50 strain (AID 155);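 further: 0% = growth of vehicle-only cultures of the same strain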
- CONDITION_LABEL: S. cerevisiae rad50 strain growth inhibition; at 50.0 µM; hits give high values
This is part of a sample that, as a whole, favours compounds with a hit. Of some 79,000 tested, about 15% had one in any assay. Calls of active or inactive are those of the source. No stated cut-off is given here; in the data, active means growth inhibition above about 70%; inactive means the rest.
growth inhibition values, listed per item

In the examples that follow, each entry is paired with its recorded growth inhibition.
                                   molecule            result
0                  CP(=O)(c1ccccc1)c1ccccc1  12.3% (inactive)
1  CNC(=O)OCc1c(COC(=O)NC)c(-c2ccc(OC)cc2)n2c1CCC2  28.4% (inactive)
2            OCCN1COc2cc3c(cc2C1)OCN(CCO)C3  17.4% (inactive)

Need growth inhibition, item C/C=C/c1ccc(OCC(=O)O)c(OC)c1
99% (active)

Next record, please: C=CC(=O)c1ccc2c(c1)OCCOCCOCCOCCOCCO2
77.8% (active)

Next record, please: O=c1cccccc1[O-].O=c1cccccc1[O-].O=c1cccccc1[O-].[Dy+3]
92.8% (active)

Next record, please: C/C(O)=C(/C=N/C(=S)Nc1ccc(S(N)(=O)=O)cc1)C(=O)Nc1ccccc1C
79.7% (active)

Next record, please: COC1OC(CBr)C(OC(C)=O)C(OC(C)=O)C1OC(C)=O (configuration not stated)
5.9% (inactive)

Next record, please: c1ccc(-n2c3ccccc3c3ccccc32)cc1
86.7% (active)

Next record, please: O=C(CCCN1CCC(C(O)c2ccc(F)cc2)CC1)c1ccc(F)cc1 (configuration not stated)
71.5% (active)

Next record, please: C/C(=N\NC(=S)Nc1ccc(S(N)(=O)=O)cc1)c1ccccn1
63.5% (inactive)

Next record, please: O=NNc1ncccc1OCc1ccccc1
56.9% (inactive)

* * *

- ASSAY_DETAILS: NCI Yeast Anticancer Drug Screen. Data for the rad50 strain (AID 155);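 further: 0% = growth of vehicle-only cultures of the same strain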
- CONDITION_LABEL: S. cerevisiae rad50 strain growth inhibition; at 50.0 µM; hits give high values
This is part of a sample that, as a whole, favours compounds with a hit. Of some 79,000 tested, about 15% had one in any assay.
growth inhibition values, listed per item
Unit % implied. Number only.

>>> df
                                   compound  value_unit  numeric_result
0  CCCc1cc(=O)oc2c3c(c4c(c12)OC(C)(C)CC4)O[C@H](C)[C@H](C)C3=O           %            88.5
1  Clc1ccc(CN2COc3c(cc(Cl)c4cccnc34)C2)c(Cl)c1           %            23.6
2  CC(=O)c1c2c(cc3c1CC1(C3)Cc3cc4c(c(C(=O)O)c3C1)CCC4)CCC2 (stereo unspecified)           %              84
3              CCCCCCCCCCN1CCN(C(=O)OCC)CC1           %              95
4               c1ccc(N=Nc2ccc3ccccc3c2)cc1           %            16.1

Need growth inhibition, item O=C(CCl)N1CCN(C(c2ccccc2)c2ccccc2)CC1
95
